The measurements presented in this section are drawn from paper PMC5167242.

# System: DMS114 cells
# protocol_summary: cell viability assay
# Assay type: cell-based
# test_settings: Homo sapiens, DMS-114
measurement_name: pIC50
One number for each entry, as −log10 of the molar value.

Challenge: Tell me the measured pIC50 of CNC(=O)c1cccc2cc(Oc3ccnc4cc(OCC5(N)CC5)c(OC)cc34)ccc12 [lucitanib] , please.
Response given: 6.00

---

# protocol_summary: pharmacokinetics after 12 daily oral doses in lung xenograft bearing mice
# Assay type: in vivo
# test_settings: NCr-nu/nu, mouse, tumor and plasma, po
measurement_name: Kp at 4 h
Answers are plain numbers.

Challenge: Report Kp at 4 h for `CNC(=O)c1cccc2cc(Oc3ccnc4cc(OCC5(N)CC5)c(OC)cc34)ccc12` please.
Response given: 2.5
